Reference source: ChEMBL document CHEMBL1157873

Assay: Cytotoxicity against human SJ-G2 cells at 100 uM after 72 hrs by MTT assay
Type: functional
Settings: SJ-G2, 72 h
I'd be grateful if you could share measured inhibition at 100 µM for these entries.

Query: inhibition at 100 µM; subject: O=C1[C@H]2CNC[C@H]2C(=O)N1CCN1CCOCC1
< 10%

Query: inhibition at 100 µM; subject: CCOC(=O)C[C@@H](C(=O)OCC)N1C(=O)[C@H]2COC[C@H]2C1=O
< 10%

Query: inhibition at 100 µM; subject: NCC[C@@H](C(=O)O)N1C(=O)[C@H]2CNC[C@H]2C1=O
< 10%
